B1: LINE1-full (parent)
chain: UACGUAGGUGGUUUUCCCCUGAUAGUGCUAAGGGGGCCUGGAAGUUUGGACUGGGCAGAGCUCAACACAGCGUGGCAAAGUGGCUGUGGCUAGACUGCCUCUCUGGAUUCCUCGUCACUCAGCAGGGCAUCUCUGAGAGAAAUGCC

variants of: B1; experiment: self-cleavage, relative activity (ratio to wild type); higher = more cleavage; in vitro, sequencing; the parent is a self-cleaving ribozyme
Answer each item with its documented self-cleavage.
Give bare numbers.

Example entries begin here.
UACGUAGGUGGUUUUCCCCUGAUAGUGCUAAGGGGGCCUGGAAGUUUGGACUGGGCAGAGCUCAACACAGCGUGGCAAGGUGGCUGUGGCUAGACUGCCUCUCUGGAUUCCUCGUCACUCAGCAGGGCAACUCUGAGAGAAAUGCC [A79G U130A]    1.09
UACGUAGGUGGUUUUCCCCUGAUAGUGCUAAGGGGGCCUGGAAGUUUGGACGGGGCAGAGCUCGACACAGCGUGGCAAAGUGGCUGUGGCUAGACUGCCUCUCUGGAUUCCUCGUCACUCAGCAGGGCAUCUCUGAGAGAAAUGCC [U52G A64G]    0.32
UACGUAGGUGGUUUUCCCCUGAUAGUGCUAAGGGGGCCUGGAAGUUUGGACUGGGCAGGGCUCAACACAGCGUGGCAAAGUGGCUGUGGCUAGACUGCCUCUCUGGAUUCCUCGUCACUCAGCAGGGCAUCUCUGAGAGGAAUGCC [A59G A140G]    0.09
UACGUAGGUGGUUUUCCCCUGAUAGUGCUAAGGGGGCCUGGAAGUUCGGACUGGGCAGAGCUCAACACAGCGUGGCAAAGUGGCUGUGGCUAGACUGCCUCUCUGGAUUCCUCGUCACUCAGCAGGGCAUCUCUGGGAGAAAUGCC [U47C A136G]    0.99
UACGUAGGUGGUUUUCCCCUGAUAGUGUUAAGGGGGCCUGGAAGUUUGGACUGGGCAGGGCUCAACACAGCGUGGCAAAGUGGCUGUGGCUAGACUGCCUCUCUGGAUUCCUCGUCACUCAGCAGGGCAUCUCUGAGAGAAAUGCC [C28U A59G]    0.09
UACGUAGGUGGUUUUCCCCUGAUAGUGCUAAGGGGGCCUGGAAGUUUGGACUGGGCAGAGCUCAACACAGCGUGGCAAAGUGGUUGUGGCUAGACUGCCUCUCUGGACUCCUCGUCACUCAGCAGGGCAUCUCUGAGAGAAAUGCC [C84U U108C]    0.15
UACGUAGGUGGUUUUCCCCUGAUAGUGCUAAGGGGGCCUGGAAGUUUGGACUGGGCAGAGCUCAACACAGCGUGGCAAAGUGGCUGUGGCUAGACUGCCUCUCAGGAUUCCUCUUCACUCAGCAGGGCAUCUCUGAGAGAAAUGCC [U104A G114U]    1.09
UACGUAGGUGGUUUUCCCCUGAUAGUGCUAAGGGGGCCUGGAAGUUUGGACUGGGCAGAGCUCAACACAGCGUGGCAAAGUGGCUGUGGCUAGACUGCCUCUCUGGAUUCCUCGUCACUCAGCAAGGCAUCUCUGAGAGUAAUGCC [G125A A140U]    0.61

Report self-cleavage for each item below.
1. UACGUAGGUGGUUUUCCCCUGAUAGUGCUAAGGGGGCCUGGAAGUUUGGACUGGGCAGAGCUCAACACAGCGUGGCAAAGCGGCUGUGGCUAGACUGCCUCUCUGGAUUCCUCGUCACUCAGCAGGGCAUCUCCGAGAGAAAUGCC [U81C U134C]
2. UACGUAGGUGGUUUUCCCCUGAUAGUGCUAAGGGGGCCCGGAAGUUUGGACUGGGCAGAGCUCAACACAGCGUGGCAAAGUGGCUGUGGCUAGACUGCCUCACUGGAUUCCUCGUCACUCAGCAGGGCAUCUCUGAGAGAAAUGCC [U39C U102A]
3. UACGUAGGUGGUUUUCCCCUGAUGGUGCUAAGGGGGCCUGGAAGUUUGGACUGGGCAGAGCUCAACACAGCGUGGCAAGGUGGCUGUGGCUAGACUGCCUCUCUGGAUUCCUCGUCACUCAGCAGGGCAUCUCUGAGAGAAAUGCC [A24G A79G]
4. UACGUAGGUGGUUUUCCCCUGAUAGUGCUAAGGGGGCCUGGAAGUCUGGACUGGGCAGAGCUCAACACAGCGUGGCAAAGUGGCUGUGGCUAGACUGCCUCUCUGGAUUCCUCGUCACUUAGCAGGGCAUCUCUGAGAGAAAUGCC [U46C C120U]
5. UACGUAGGUGGUUUUCCCCUGAUAGUGCUAAGGGGGCCUGGAAGUUUGGACUGGGCAGAGCUCAACUCAGCGUGGCAAAGUGGCUGUGGCUUGACUGCCUCUCUGGAUUCCUCGUCACUCAGCAGGGCAUCUCUGAGAGAAAUGCC [A67U A92U]
6. UACGUAGGUGGUUUUCCCCUGAUAGUGCUAAGGGGGCCUGGAAGUUUGGACUGGGCAGGGCUCAACACAGCGUGGCAAAGUGGCUGUGGCUAGACUGCCUCUCUGGAUUCCUCGUCACUCAGCAGGGCAUCUCUGAGAGUAAUGCC [A59G A140U]
7. UACGUAGGUGGUUUUCCCCUGAUAGUGCUAAGGGGGCCUGGAAGUUUGGACUGGGCAGAGCUCAACACAGCGUGGCAAAGUGGCUGUGGCUAGACUGCCUCUCUGGAUUCCUCGUCGCUCAGCAGGGCAUCUUUGAGAGAAAUGCC [A117G C133U]

Response given:
[1.36, 1.03, 0.95, 1.57, 0.05, 0.09, 2.55]

Report self-cleavage for each item below.
1. UACGUAGGUGGUUUUCCCCUGGUAGUGCUAAGGGGGUCUGGAAGUUUGGACUGGGCAGAGCUCAACACAGCGUGGCAAAGUGGCUGUGGCUAGACUGCCUCUCUGGAUUCCUCGUCACUCAGCAGGGCAUCUCUGAGAGAAAUGCC [A22G C37U]
2. UACGUAGGUGGUUUUCCCCUGAUAGUGCUAAGGUGGCCUGGAAGUUUGGACUGGGCAGAGCUCAACACAGCGUGGCAAAGUGGCGGUGGCUAGACUGCCUCUCUGGAUUCCUCGUCACUCAGCAGGGCAUCUCUGAGAGAAAUGCC [G34U U85G]
3. UACGUAGGUGGUUUUCCCCUGAUAGUGCUAAGGGGACCUGGAAGUUUGGACUGGGCAGAGCUCAACACAGCGUGGCAAAGUGGCUGUGGCUAGACUGCCUCUCUGGAUUCCUCGUCACUCAGCAGGGCAUCUCUGGGAGAAAUGCC [G36A A136G]
4. UACGUAGGUGGUUUUCCCCUGAUAGUGCUAAGGGGGCCCGGAAGUUUGGACUGGGCAGAGCUCAACACAGCGAGGCAAAGUGGCUGUGGCUAGACUGCCUCUCUGGAUUCCUCGUCACUCAGCAGGGCAUCUCUGAGAGAAAUGCC [U39C U73A]
5. UACGUAGGUGGUUUUCCCCUGAUAGUGCUAAGGGGGCCUGGAAGUUUGGACUGGGCAGAGCUCAACACAGCGUGGCAAAGUGGCUGUGGCUAGACUGCCUCCCUGGAUUCCUCAUCACUCAGCAGGGCAUCUCUGAGAGAAAUGCC [U102C G114A]

Response given:
1. 0.94
2. 0.09
3. 1.43
4. 1
5. 1.21

Report self-cleavage for each item below.
1. UACGUAGGUGGUUUUCCCCUGAUAGUGCUAAGGGGGCCUGGAAGUAUGGAUUGGGCAGAGCUCAACACAGCGUGGCAAAGUGGCUGUGGCUAGACUGCCUCUCUGGAUUCCUCGUCACUCAGCAGGGCAUCUCUGAGAGAAAUGCC [U46A C51U]
2. UACGUAGGUGGUUCUCCCCUGAUAGUGCUAAGGGGGCCUGGAAGUUUGGACUGGGCAGAGCUCAACACAGCGUGGCAUAGUGGCUGUGGCUAGACUGCCUCUCUGGAUUCCUCGUCACUCAGCAGGGCAUCUCUGAGAGAAAUGCC [U14C A78U]
3. UACGUAGGUGGUUUUCCCCUGAUAGUGCUAAGGGGGCCUGGAAGUUUGGACUGGGCAGAGCUCAACACAGCGUGGCAAAGUGGCUGUGGCUAGACUGCCUCUCUGGAUUCCUCGUCGCUCAGCAGGGCAUCUCUGAGUGAAAUGCC [A117G A138U]

Response given:
1: 1.35; 2: 1.44; 3: 1.13
